methodSummary: Cycloheximide Counterscreen for Small Molecule Inhibitors of Shiga Toxin; further: read at 38.3 µM for the half of the compounds with a filed dose; 0% is about no effect
appliedConditions: cell reporter, cycloheximide protein synthesis inhibition counterscreen; active compounds read high
Among all 300,000 compounds or so, about 37,000 (12%) were called active. Many of the other results were omitted from the sample, so actives are more common in it than they were.
metric: max response

# compound, reported
measured = [
    ("Cn1ncc(N2CCN(S(=O)(=O)c3ccc(Br)cc3)CC2)c(Cl)c1=O", "-6.65% (inactive)"),
    ("Cc1ccc(NC(=O)NC2CCCCC2)cc1S(=O)(=O)N1CCOCC1", "-2.12% (inactive)"),
    ("CCOc1ccc(C(=O)Nc2ccc(CN3CCOCC3)cc2)cc1Cl", "6.5% (inactive)"),
    ("Cc1cc2nc(C)n(CCCNC(=O)Nc3ccccc3)c2cc1C", "-3.47% (inactive)"),
    ("CC1(c2cccc([N+](=O)[O-])c2)CC(C)(C)N(C(=O)c2ccccc2)c2ccccc21 (stereo not given)", "4.81% (inactive)"),
]

Value source: PubChem BioAssay AID2314
